experimentNotes: Biodistribution of 177Lu-labeled αMSH analogues in mice bearing B16F10 mouse melanoma
Type: in vivo, C57BL/6J mice
testContext: mouse, tumour/kidney, iv, total radioactivity; 120 h p.i., C57BL/6J mice, B16F10 melanoma; read-out: Tumour/kidney
metricName: tissue to tissue ratio at 120 h

[[record]]
compound = "CCCC[C@H](NC(=O)CN1CCC(NC(=O)[C@H](CCCCNC(=O)CN2CCN(CC(=O)O)CCN(CC(=O)O)CCN(CC(=O)O)CC2)NC(=O)[C@H](CCC(=O)O)NC(=O)CCCc2ccc(I)cc2)CC1)C(=O)N[C@H]1CC(=O)NCCCC[C@@H](C(N)=O)N(C)C(=O)[C@H](Cc2c[nH]c3ccccc23)NC(=O)[C@H](CCCNC(=N)N)N(C)C(=O)[C@@H](Cc2ccccc2)NC(=O)[C@H](Cc2c[nH]cn2)NC1=O [^177Lu-labeled CCZ01118, metal not drawn]"
number = 1.89


* * *

experimentNotes: Biodistribution of 68Ga-labeled peptide in mice bearing B16F10 mouse melanoma
Format: in vivo, C57BL/6J mice
testContext: muscle, iv, total radioactivity, 1 h p.i. unblocked, C57BL/6J mice, B16F10 melanoma, read-out: Biodistribution, Muscle
metricName: tissue uptake at 1 h (%ID/g)

[[record]]
compound = "CCCC[C@H](NC(=O)CN1CCC(NC(=O)CN2CCN(CC(=O)O)CCN(CC(=O)O)CCN(CC(=O)O)CC2)CC1)C(=O)N[C@H]1CC(=O)NCCCC[C@@H](C(N)=O)N(C)C(=O)[C@H](Cc2c[nH]c3ccccc23)N(C)C(=O)[C@H](CCCNC(=N)N)N(C)C(=O)[C@@H](Cc2ccccc2)NC(=O)[C@H](Cc2c[nH]cn2)N(C)C1=O [^68Ga-labeled CCZ01099, metal not drawn]"
number = 0.17


* * *

experimentNotes: Biodistribution of 177Lu-labeled αMSH analogues in mice bearing B16F10 mouse melanoma
Type: in vivo, C57BL/6J mice
testContext: mouse, heart, iv, total radioactivity; 4 h p.i., C57BL/6J mice, B16F10 melanoma; read-out: Biodistribution, Heart
metricName: tissue uptake at 4 h (%ID/g)

[[record]]
molecule = "CCCC[C@H](NC(=O)CN1CCC(NC(=O)CN2CCN(CC(=O)O)CCN(CC(=O)O)CCN(CC(=O)O)CC2)CC1)C(=O)N[C@H]1CC(=O)NCCCC[C@@H](C(N)=O)N(C)C(=O)[C@H](Cc2c[nH]c3ccccc23)N(C)C(=O)[C@H](CCCNC(=N)N)N(C)C(=O)[C@@H](Cc2ccccc2)NC(=O)[C@H](Cc2c[nH]cn2)N(C)C1=O [^177Lu-labeled CCZ01099, metal not drawn]"
number = 0.04

[[record]]
molecule = "CCCC[C@H](NC(=O)CN1CCC(NC(=O)CN2CCN(CC(=O)O)CCN(CC(=O)O)CCN(CC(=O)O)CC2)CC1)C(=O)N[C@H]1CC(=O)NCCCC[C@@H](C(N)=O)N(C)C(=O)[C@H](Cc2c[nH]c3ccccc23)NC(=O)[C@H](CCCNC(=N)N)N(C)C(=O)[C@@H](Cc2ccccc2)NC(=O)[C@H](Cc2c[nH]cn2)NC1=O [^177Lu-labeled CCZ01106, metal not drawn]"
number = 0.03

[[record]]
molecule = "CCCC[C@H](NC(=O)CN1CCC(NC(=O)[C@H](CCCCNC(=O)CN2CCN(CC(=O)O)CCN(CC(=O)O)CCN(CC(=O)O)CC2)NC(=O)[C@H](CCC(=O)O)NC(=O)CCCc2ccc(I)cc2)CC1)C(=O)N[C@H]1CC(=O)NCCCC[C@@H](C(N)=O)N(C)C(=O)[C@H](Cc2c[nH]c3ccccc23)N(C)C(=O)[C@H](CCCNC(=N)N)N(C)C(=O)[C@@H](Cc2ccccc2)NC(=O)[C@H](Cc2c[nH]cn2)N(C)C1=O [^177Lu-labeled CCZ01088, metal not drawn]"
number = 0.4

[[record]]
molecule = "CCCC[C@H](NC(=O)CN1CCC(NC(=O)[C@H](CCCCNC(=O)CN2CCN(CC(=O)O)CCN(CC(=O)O)CCN(CC(=O)O)CC2)NC(=O)[C@H](CCC(=O)O)NC(=O)CCCc2ccc(I)cc2)CC1)C(=O)N[C@H]1CC(=O)NCCCC[C@@H](C(N)=O)N(C)C(=O)[C@H](Cc2c[nH]c3ccccc23)NC(=O)[C@H](CCCNC(=N)N)N(C)C(=O)[C@@H](Cc2ccccc2)NC(=O)[C@H](Cc2c[nH]cn2)NC1=O [^177Lu-labeled CCZ01118, metal not drawn]"
number = 0.45

[[record]]
molecule = "CCCC[C@H](NC(=O)CN1CCC(NC(=O)[C@H](CCCCNC(=O)CN2CCN(CC(=O)O)CCN(CC(=O)O)CCN(CC(=O)O)CC2)NC(=O)[C@H](CCC(=O)O)NC(=O)CCCc2ccc(I)cc2)CC1)C(=O)N[C@H]1CC(=O)NCCCC[C@@H](C(N)=O)NC(=O)[C@H](Cc2c[nH]c3ccccc23)NC(=O)[C@H](CCCNC(=N)N)NC(=O)[C@@H](Cc2ccccc2)NC(=O)[C@H](Cc2c[nH]cn2)NC1=O [^177Lu-labeled CCZ01082, metal not drawn]"
number = 0.8


* * *

experimentNotes: Biodistribution of 177Lu-labeled αMSH analogues in mice bearing B16F10 mouse melanoma
Format: in vivo, C57BL/6J mice
testContext: mouse, urine, iv, total radioactivity; 1 h p.i., C57BL/6J mice, B16F10 melanoma
metricName: excreta dose per gram or mL at 1 h (%ID/g)

[[record]]
molecule = "CCCC[C@H](NC(=O)CN1CCC(NC(=O)[C@H](CCCCNC(=O)CN2CCN(CC(=O)O)CCN(CC(=O)O)CCN(CC(=O)O)CC2)NC(=O)[C@H](CCC(=O)O)NC(=O)CCCc2ccc(I)cc2)CC1)C(=O)N[C@H]1CC(=O)NCCCC[C@@H](C(N)=O)N(C)C(=O)[C@H](Cc2c[nH]c3ccccc23)NC(=O)[C@H](CCCNC(=N)N)N(C)C(=O)[C@@H](Cc2ccccc2)NC(=O)[C@H](Cc2c[nH]cn2)NC1=O [^177Lu-labeled CCZ01118, metal not drawn]"
metricname = "excreta dose per gram or mL at 1 h"
unitabbreviation = "%ID/g"
number = 158


* * *

experimentNotes: Biodistribution of 177Lu-labeled αMSH analogues in mice bearing SK-MEL-1 human melanoma
testContext: male, NRG (NOD.Cg-Rag1tm1Mom I12rgtm1Wjl/SzJ), mouse, fat, iv, total radioactivity
metricName: tissue uptake at 24 h

[[record]]
molecule = "CCCC[C@H](NC(=O)CN1CCC(NC(=O)[C@H](CCCCNC(=O)CN2CCN(CC(=O)O)CCN(CC(=O)O)CCN(CC(=O)O)CC2)NC(=O)[C@H](CCC(=O)O)NC(=O)CCCc2ccc(I)cc2)CC1)C(=O)N[C@H]1CC(=O)NCCCC[C@@H](C(N)=O)N(C)C(=O)[C@H](Cc2c[nH]c3ccccc23)NC(=O)[C@H](CCCNC(=N)N)N(C)C(=O)[C@@H](Cc2ccccc2)NC(=O)[C@H](Cc2c[nH]cn2)NC1=O [^177Lu-labeled CCZ01118, metal not drawn]"
metricname = "tissue uptake at 24 h"
result = "0.1 %ID/g"

[[record]]
molecule = "CCCC[C@H](NC(=O)CN1CCC(NC(=O)[C@H](CCCCNC(=O)CN2CCN(CC(=O)O)CCN(CC(=O)O)CCN(CC(=O)O)CC2)NC(=O)CNC(=O)CCCc2ccc(-c3ccc(C)cc3)cc2)CC1)C(=O)N[C@H]1CC(=O)NCCCC[C@@H](C(N)=O)N(C)C(=O)[C@H](Cc2c[nH]c3ccccc23)NC(=O)[C@H](CCCNC(=N)N)N(C)C(=O)[C@@H](Cc2ccccc2)NC(=O)[C@H](Cc2c[nH]cn2)NC1=O [^177Lu-labeled CCZ01158, metal not drawn]"
metricname = "tissue uptake at 24 h"
result = "0.3 %ID/g"

[[record]]
molecule = "CCCC[C@H](NC(=O)CN1CCC(NC(=O)[C@H](CCCCNC(=O)CN2CCN(CC(=O)O)CCN(CC(=O)O)CCN(CC(=O)O)CC2)NC(=O)CNC(=O)CCCc2ccc(I)cc2)CC1)C(=O)N[C@H]1CC(=O)NCCCC[C@@H](C(N)=O)N(C)C(=O)[C@H](Cc2c[nH]c3ccccc23)NC(=O)[C@H](CCCNC(=N)N)N(C)C(=O)[C@@H](Cc2ccccc2)NC(=O)[C@H](Cc2c[nH]cn2)NC1=O [^177Lu-labeled CCZ01148, metal not drawn]"
metricname = "tissue uptake at 24 h"
result = "2.1 %ID/g"


* * *

experimentNotes: Biodistribution of 177Lu-labeled αMSH analogues in mice bearing SK-MEL-1 human melanoma
testContext: male, NRG (NOD.Cg-Rag1tm1Mom Il2rgtm1Wjl/SzJ), mouse, SK-MEL-1 tumour, total radioactivity
metricName: tissue uptake at 1 h (%ID/g)

[[record]]
compound = "CCCC[C@H](NC(=O)CN1CCC(NC(=O)[C@H](CCCCNC(=O)CN2CCN(CC(=O)O)CCN(CC(=O)O)CCN(CC(=O)O)CC2)NC(=O)CNC(=O)CCCc2ccc(I)cc2)CC1)C(=O)N[C@H]1CC(=O)NCCCC[C@@H](C(N)=O)N(C)C(=O)[C@H](Cc2c[nH]c3ccccc23)NC(=O)[C@H](CCCNC(=N)N)N(C)C(=O)[C@@H](Cc2ccccc2)NC(=O)[C@H](Cc2c[nH]cn2)NC1=O [^177Lu-labeled CCZ01148, metal not drawn]"
unitabbreviation = "%ID/g"
number = 6.62

[[record]]
compound = "CCCC[C@H](NC(=O)CN1CCC(NC(=O)[C@H](CCCCNC(=O)CN2CCN(CC(=O)O)CCN(CC(=O)O)CCN(CC(=O)O)CC2)NC(=O)[C@H](CCC(=O)O)NC(=O)CCCc2ccc(I)cc2)CC1)C(=O)N[C@H]1CC(=O)NCCCC[C@@H](C(N)=O)N(C)C(=O)[C@H](Cc2c[nH]c3ccccc23)NC(=O)[C@H](CCCNC(=N)N)N(C)C(=O)[C@@H](Cc2ccccc2)NC(=O)[C@H](Cc2c[nH]cn2)NC1=O [^177Lu-labeled CCZ01118, metal not drawn]"
unitabbreviation = "%ID/g"
number = 10.5

[[record]]
compound = "CCCC[C@H](NC(=O)CN1CCC(NC(=O)[C@H](CCCCNC(=O)CN2CCN(CC(=O)O)CCN(CC(=O)O)CCN(CC(=O)O)CC2)NC(=O)CNC(=O)CCCc2ccc(-c3ccc(C)cc3)cc2)CC1)C(=O)N[C@H]1CC(=O)NCCCC[C@@H](C(N)=O)N(C)C(=O)[C@H](Cc2c[nH]c3ccccc23)NC(=O)[C@H](CCCNC(=N)N)N(C)C(=O)[C@@H](Cc2ccccc2)NC(=O)[C@H](Cc2c[nH]cn2)NC1=O [^177Lu-labeled CCZ01158, metal not drawn]"
unitabbreviation = "%ID/g"
number = 13.3

